assay-metric: melting point

molecule | melting point
CCN(C)c1ccc2c(c1)CN(c1cccc(-c3cc(Nc4cc5n(n4)CCN(C)C5)c(=O)n(C)n3)c1CO)C2=O | 145 to 147 °C
Cc1c(-c2cc(Nc3cc4n(n3)CCN(C)C4)c(=O)[nH]n2)cccc1N1Cc2ccc(C(C)(C)C)cc2C1=O | 208 to 210 °C
Cn1nc(-c2cccc(N3Cc4cc(C(C)(C)C)ccc4C3=O)c2CO)cc(Nc2ccccn2)c1=O | 236 to 237 °C

Next:
GET /values?readout=melting point&item= Cn1nc(-c2cccc(N3Cc4cc(C(C)(C)C)ccc4C3=O)c2CO)cc(Nc2ccncn2)c1=O
236 to 238 °C
